# measured target: Voltage-gated potassium channel subunit beta-2 (Rattus norvegicus)
# assay comment: enhancers of rat Kvbeta2 NADPH turnover – biochemical, NADPH fluorescence, primary screen (AID 623);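 further: fluorescence intensity change per second fitted from 20 to 320 s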
# assay setup: Recombinant KvBeta, NADPH fluorescence decrease slope, 10 min; at 10 µM; active compounds read low
recorded endpoint: NADPH fluorescence slope
Quick one: just the number, no unit, thanks!

Worked examples, 8 compounds total:
| compound | NADPH fluorescence slope |
| --- | --- |
| Cc1ccc(NC(=O)C2CC=CCC2C(=O)N2CCCCC2)cc1 (stereo unspecified) | -2.1e-05 |
| CCCCCc1c(C)nc(SCC(=O)O)[nH]c1=O | 3.4e-05 |
| COc1ccc(OC)c(S(=O)(=O)N2CCN(c3c(C)cccc3C)CC2)c1 | -4.7e-05 |
| CCN(CC)C(=O)c1ccc(CS(=O)(=O)c2ccc(OC)cc2)o1 | -3e-05 |
| O=C(Cn1cc2c(n1)CCCCC2)N1CCc2ccccc2C1 | 1.4e-05 |
| Cc1ccc(OCCC(=O)OCC(=O)C(C)(C)C)cc1 | -5.3e-05 |
| CCOC(=O)c1ccccc1NC(=O)c1ccc(NS(C)(=O)=O)cc1 | -6e-06 |
| COc1ccc(C(=O)N2CCN(S(=O)(=O)c3cc(Cl)ccc3OC)CC2)cc1 | -2.2e-05 |

input: Request - read-out NADPH fluorescence slope | tested on Voltage-gated potassium channel subunit beta-2 (Rattus norvegicus) | compound Cc1cccn2c(=O)c3cc(C(=O)NC4CCCC4)c(=N)n(C4CCCC4)c3nc12
output: -1.1e-05

input: Request - read-out NADPH fluorescence slope | tested on Voltage-gated potassium channel subunit beta-2 (Rattus norvegicus) | compound CC1(C)CC(=O)C(CC2=C(O)CC(C)(C)CC2=O)=C(O)C1
output: -1.3e-05

input: Request - read-out NADPH fluorescence slope | tested on Voltage-gated potassium channel subunit beta-2 (Rattus norvegicus) | compound CCn1c(SCC(=O)c2ccc(OC)cc2)nnc1C(C)NC(=O)c1ccc(OC)cc1 (stereo unspecified)
output: 2.1e-05

meta.source: PubChem BioAssay
